Some substances, each annotated with its measured ELISA signal.
# assayed-target: REFACTO® (factor VIII-like polypeptide, amino acids 1-743 and 1638 through 2332 of human factor VIII) (Homo sapiens)
# Construct: amino acids 1-743 and 1638 through 2332 of human factor VIII; purchased Genetics Institute, Inc. (Cambridge, Mass.)
# Sequence (P00451 20-762): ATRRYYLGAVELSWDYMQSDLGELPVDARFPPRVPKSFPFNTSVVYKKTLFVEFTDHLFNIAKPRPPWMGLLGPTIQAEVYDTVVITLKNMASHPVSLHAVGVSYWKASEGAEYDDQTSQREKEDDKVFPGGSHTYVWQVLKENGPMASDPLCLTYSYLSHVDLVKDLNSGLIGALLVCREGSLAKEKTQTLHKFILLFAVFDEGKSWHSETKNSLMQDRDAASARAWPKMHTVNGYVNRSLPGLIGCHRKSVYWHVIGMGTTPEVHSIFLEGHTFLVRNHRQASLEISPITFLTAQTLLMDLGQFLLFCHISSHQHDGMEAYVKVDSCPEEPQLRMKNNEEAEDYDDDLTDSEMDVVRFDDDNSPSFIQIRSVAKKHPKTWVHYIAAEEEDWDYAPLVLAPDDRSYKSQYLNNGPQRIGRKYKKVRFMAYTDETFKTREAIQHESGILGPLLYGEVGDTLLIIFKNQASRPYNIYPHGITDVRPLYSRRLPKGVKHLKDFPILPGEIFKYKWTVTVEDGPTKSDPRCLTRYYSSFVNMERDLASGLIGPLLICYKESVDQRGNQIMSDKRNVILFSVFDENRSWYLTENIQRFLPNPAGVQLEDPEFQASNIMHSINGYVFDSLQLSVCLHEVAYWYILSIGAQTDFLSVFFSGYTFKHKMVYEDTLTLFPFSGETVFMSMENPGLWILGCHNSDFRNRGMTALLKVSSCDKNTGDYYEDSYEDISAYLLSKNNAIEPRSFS
# Sequence (P00451 1657-2351): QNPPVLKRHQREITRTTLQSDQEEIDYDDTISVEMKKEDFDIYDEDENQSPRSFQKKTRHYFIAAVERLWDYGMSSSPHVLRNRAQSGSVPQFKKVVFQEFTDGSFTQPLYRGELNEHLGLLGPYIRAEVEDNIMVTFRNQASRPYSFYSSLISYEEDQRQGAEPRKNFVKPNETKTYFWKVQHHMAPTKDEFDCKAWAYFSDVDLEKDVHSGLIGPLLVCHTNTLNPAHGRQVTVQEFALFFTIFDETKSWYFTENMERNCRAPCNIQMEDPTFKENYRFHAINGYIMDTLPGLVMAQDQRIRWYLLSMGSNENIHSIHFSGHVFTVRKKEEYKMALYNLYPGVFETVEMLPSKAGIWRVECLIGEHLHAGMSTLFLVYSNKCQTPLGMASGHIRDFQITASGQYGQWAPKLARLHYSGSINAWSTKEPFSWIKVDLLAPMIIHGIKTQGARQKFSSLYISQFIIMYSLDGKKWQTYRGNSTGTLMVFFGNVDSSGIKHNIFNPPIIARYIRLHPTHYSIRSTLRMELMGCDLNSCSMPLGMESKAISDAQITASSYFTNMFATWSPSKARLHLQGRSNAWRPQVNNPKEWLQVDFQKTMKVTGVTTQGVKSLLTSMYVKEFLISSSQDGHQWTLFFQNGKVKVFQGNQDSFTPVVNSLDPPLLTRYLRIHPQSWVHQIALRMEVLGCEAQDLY
# procedure-text: Phage ELISA of third-round isolates for binding to the factor VIII target
# assay-setup: TN7 library phage isolates; HRP anti-M13, TMB, absorbance at OD630
Lab note: jot down the number only; don't add units.

As a guide, the following entries are already answered.
A08 (FGCSWLFPCPF; Selected Phage Display Sequence) = 0.4
D03 (PHCNWLFPCSL; Selected Phage Display Sequence) = 0.2
D04 (RLCSWISPCSA; Selected Phage Display Sequence) = 0.3
A09 (FHCIGVWFCLH; Selected Phage Display Sequence) = 0.1
C5/G10 (RLCSWVSPCSA; Selected Phage Display Sequence) = 0.5

# context switch: different substance, same ELISA signal
Item: A06 (HSCGSWLFPCFA; Selected Phage Display Sequence) | ELISA signal: 0.5
